Each recorded value in this set is attributed to patent US12187720B2.

Entries and their half-life at 0.5 μM
Assay: Metabolic stability in mouse liver microsomes
Assay type: in vitro ADME
Conditions: mouse, liver microsomes, pH 7.4, phase I pathway; read-out: T ½ (min), mouse liver microsomes
# value in min; strip the unit string

Example entries begin here.
smiles text | half-life at 0.5 μM / min
c1cc2ccc(-c3ccc4[nH]ccc4c3)cc2c(-c2ccc3[nH]ccc3c2)n1 | 10
Fc1ccc(-c2nccc3ccc(-c4ccc5[nH]ccc5c4)cc23)cc1 | 13

Turning now to a further compound:
Problem: Request the reported half-life at 0.5 μM associated with COc1cc(-c2nccc3ccc(-c4ccc5[nH]ccc5c4)cc23)cc(OC)c1OC
Result: 3.4

* * *

Test: in vivo
Conditions: male, ICR, mouse, plasma, po, 5 mg/kg
readout label: bioavailability (%)
# value in %; strip the unit string

Example entries begin here.
smiles text | bioavailability (%)
COc1cc(-c2nccc3ccc(-c4ccc5[nH]ccc5c4)cc23)cc(OC)c1OC | 5
Fc1ccc(-c2nccc3ccc(-c4ccc5[nH]ccc5c4)cc23)cc1 | 2.7

Problem: Request the reported bioavailability associated with c1cc2ccc(-c3ccc4[nH]ccc4c3)cc2c(-c2ccc3[nH]ccc3c2)n1
Result: 2.1

* * *

System: A375
Test: SRB cytotoxicity assay, A375 human melanoma cells
Assay type: cell-based
Settings: Homo sapiens, A-375, 48 h, Table 12, 48 h; read-out: IC50 ± SEM A375
readout label: IC50

molecule | IC50
CN(C)c1ccc(-c2nc(C(=O)c3ccc(F)cc3)c[nH]2)cc1 [12gb] | 56 nM

Problem: Request the reported IC50 associated with COc1cc(-c2nc(C(=O)c3ccc(F)cc3)c[nH]2)cc(OC)c1OC [12eb]
Result: > 10000 nM

* * *

System: DU 145
Experiment: SRB cytotoxicity assay, DU 145 prostate cancer cells
Assay type: cell-based
Conditions: Homo sapiens, Table 13A, read-out: inhibitory effects DU145
Entries and their log10 of IC50
Recall that a logarithmic scale is used here: each number is log10 of IC50 in nM.

Example entries begin here.
compound | system name | log10 of IC50
COc1cc(C(=O)c2nc(-c3ccc(C(F)(F)F)cc3)c[nH]2)cc(OC)c1OC [70e] | DU 145 | 2.32
COc1ccc(-c2c[nH]c(C(=O)c3cc(OC)c(OC)c(OC)c3)n2)cc1 [70g] | DU 145 | 2.32
COc1cc(C(=O)c2nc(-c3ccccc3)c(C)[nH]2)cc(OC)c1OC [70j] | DU 145 | 3.30

Problem: Request the reported log10 of IC50 associated with COc1cc(C(=O)c2nc(-c3ccc(F)cc3)c[nH]2)cc(OC)c1OC [70b]
Result: 2.55

Problem: Would you kindly repeat that for CCCc1[nH]c(C(=O)c2cc(OC)c(OC)c(OC)c2)nc1-c1ccccc1 [70l] ?
Result: 4.21

Problem: Would you kindly repeat that for CCc1[nH]c(C(=O)c2cc(OC)c(OC)c(OC)c2)nc1-c1ccccc1 [70k] ?
Result: 3.71

Problem: Would you kindly repeat that for COc1cc(C(=O)c2nc(-c3ccc(O)cc3)c[nH]2)cc(OC)c1OC [70i] ?
Result: 2.71

Problem: Would you kindly repeat that for COc1cc(C(=O)c2nc(-c3ccc(N(C)C)cc3)c[nH]2)cc(OC)c1OC [70h] ?
Result: 2.42

Problem: Would you kindly repeat that for COc1cc(C(=O)c2nc(-c3ccc(Br)cc3)c[nH]2)cc(OC)c1OC [70d] ?
Result: 1.82

Problem: Would you kindly repeat that for COc1cc(C(=O)c2nc(-c3ccc(Cl)cc3)c[nH]2)cc(OC)c1OC [70c] ?
Result: 2.10

* * *

Assay: in vitro
Settings: human, microsomes, pH 7.4
Entries and their half-life at 0.5 μM
# value in min; strip the unit string

Example entries begin here.
molecule | units text | test value
COc1cc(C(=O)c2csc(-c3ccc(O)cc3)n2)cc(OC)c1OC [2l] | min | 20
O=C(c1ccc(F)cc1)c1c[nH]c(-c2ccc(Cl)cc2)n1 [12fb] | min | 37

Turning now to a further molecule:
Problem: Request the reported half-life at 0.5 μM associated with COc1cc(C(=O)c2cn(C)c(-c3ccc(C)cc3)n2)cc(OC)c1OC [12dab]
Result: 21

* * *

Test: in vivo
Conditions: Sprague-Dawley, rat, plasma, iv, […]
readout label: half-life (h)
# value in h; strip the unit string

Problem: Request the reported half-life associated with COc1cc(C(=O)c2csc(-c3ccccc3)n2)cc(OC)c1OC [1h]
Result: 24

* * *

Experiment: in vivo
Details: male, ICR, mouse, plasma, iv, 5 mg/kg
readout label: clearance

compound | clearance
COc1cc(-c2nccc3ccc(-c4ccc5[nH]ccc5c4)cc23)cc(OC)c1OC [6a] | 51 mL/min/kg
c1cc2ccc(-c3ccc4[nH]ccc4c3)cc2c(-c2ccc3[nH]ccc3c2)n1 [6b, 1,7-Bis-(1H-indol-5-yl)-isoquinoline] | 14 mL/min/kg

Turning now to a further compound:
Problem: Request the reported clearance associated with Fc1ccc(-c2nccc3ccc(-c4ccc5[nH]ccc5c4)cc23)cc1 [6c]
Result: 30 mL/min/kg

* * *

Assay: Water solubility, 48 h shaking in water, LC-MS
Assay type: physicochemical
Conditions: thermodynamic from solid; water, 48 h, RT
readout label: solubility at 48 h (µg/mL)
# value in µg/mL; strip the unit string

Problem: Request the reported solubility at 48 h associated with COc1cc(C(=O)c2c[nH]c(-c3ccc(N(C)C)cc3)n2)cc(OC)c1OC [12ga]
Result: 13

* * *

Test system: LNCaP
Experiment: SRB cytotoxicity assay, LNCaP prostate cancer cells
Format: cell-based, human
Conditions: Homo sapiens, LNCaP; Table 13A; read-out: inhibitory effects LNCaP
Text: Cells were stained with SRB solution.
Entries and their pIC50
Friendly reminder that pIC50 comes from taking -log10 of the concentration in mol/L.

molecule | system name | test value
COc1cc(C(=O)c2nc(-c3ccccc3)c(C)[nH]2)cc(OC)c1OC [70j] | LNCaP | 6.03
COc1cc(C(=O)c2nc(-c3ccc(F)cc3)c[nH]2)cc(OC)c1OC [70b] | LNCaP | 6.94
COc1cc(C(=O)c2nc(-c3ccc(N(C)C)cc3)c[nH]2)cc(OC)c1OC [70h] | LNCaP | 7.02

Problem: pIC50 of CCCc1[nH]c(C(=O)c2cc(OC)c(OC)c(OC)c2)nc1-c1ccccc1 [70l] on LNCaP?
Result: 5.51

Problem: Would you kindly repeat that for COc1cc(C(=O)c2nc(-c3ccc(O)cc3)c[nH]2)cc(OC)c1OC [70i] ?
Result: 6.66

Problem: Would you kindly repeat that for CCc1[nH]c(C(=O)c2cc(OC)c(OC)c(OC)c2)nc1-c1ccccc1 [70k] ?
Result: 5.69

Problem: Would you kindly repeat that for COc1cc(C(=O)c2nc(-c3ccc(Br)cc3)c[nH]2)cc(OC)c1OC [70d] ?
Result: 7.82

Problem: Would you kindly repeat that for COc1cc(C(=O)c2nc(-c3ccc(Cl)cc3)c[nH]2)cc(OC)c1OC [70c] ?
Result: 7.66

Problem: Would you kindly repeat that for COc1cc(C(=O)c2nc(-c3ccc(C)cc3)c[nH]2)cc(OC)c1OC [70f] ?
Result: 7.89

Problem: Would you kindly repeat that for COc1cc(C(=O)c2nc(-c3ccc(C(F)(F)F)cc3)c[nH]2)cc(OC)c1OC [70e] ?
Result: 7.33

* * *

Test system: BCRP
Assay: in vitro
Settings: human
readout label: pIC50
Friendly reminder that pIC50 comes from taking -log10 of the concentration in mol/L.

Problem: pIC50 of CC[C@]1(O)C[C@@H]2CN(CCc3c([nH]c4ccccc34)[C@@](C(=O)OC)(c3cc4c(cc3OC)N(C)[C@H]3[C@@](O)(C(=O)OC)[C@H](OC(C)=O)[C@]5(CC)C=CCN6CC[C@]43[C@@H]65)C2)C1 [vinblastine, reference compound] on BCRP?
Result: 7.60

* * *

Test: in vivo
Conditions: ICR, Sprague-Dawley, beagle, rat, plasma, po
readout label: bioavailability

Problem: Request the reported bioavailability associated with COc1cc(C(=O)c2csc(Nc3ccc4[nH]ccc4c3)n2)cc(OC)c1OC
Result: 24 to 36%

* * *

Assay: Metabolic stability in hamster liver microsomes
Type: in vitro ADME
Conditions: pH 7.4, phase I pathway, read-out: T ½ (min), hamster liver microsomes
readout label: half-life at 0.5 μM

smiles text | test value
COc1cc(-c2nccc3ccc(-c4ccc5[nH]ccc5c4)cc23)cc(OC)c1OC | 6 min
c1cc2ccc(-c3ccc4[nH]ccc4c3)cc2c(-c2ccc3[nH]ccc3c2)n1 | 11 min

Turning now to a further molecule:
Problem: Request the reported half-life at 0.5 μM associated with Fc1ccc(-c2nccc3ccc(-c4ccc5[nH]ccc5c4)cc23)cc1
Result: 20 min

* * *

Experiment: Metabolic stability in rabbit liver microsomes
Type: in vitro ADME
Conditions: pH 7.4, phase I pathway, read-out: T ½ (min), rabbit liver microsomes
readout label: half-life at 0.5 μM (min)
# value in min; strip the unit string

Example entries begin here.
molecule | units text | half-life at 0.5 μM
COc1cc(-c2nccc3ccc(-c4ccc5[nH]ccc5c4)cc23)cc(OC)c1OC [6a] | min | 17
Fc1ccc(-c2nccc3ccc(-c4ccc5[nH]ccc5c4)cc23)cc1 [6c] | min | 16

Turning now to a further molecule:
Problem: Request the reported half-life at 0.5 μM associated with c1cc2ccc(-c3ccc4[nH]ccc4c3)cc2c(-c2ccc3[nH]ccc3c2)n1 [6b, 1,7-Bis-(1H-indol-5-yl)-isoquinoline]
Result: 16
